# Assay Method Text: Retention time of the compound by HPLC method
# Assay type: physicochemical
Measured Retention_time accompanies every entry in the list below.
Dear colleague, please return just the value in min, with no unit written.

Before answering, review these 8 worked examples.
| Smiles String | Reported Property | Numeric Result |
| --- | --- | --- |
| CCNC(=O)Nc1ccc(C(=O)Nc2ncc(C(=O)O)s2)cn1 | Retention_time | 1.43 |
| CCNC(=O)Nc1cc(N2CCN(C)CC2)c(C(=O)Nc2cccc(Cl)c2)cn1 | Retention_time | 1.36 |
| CCNC(=O)Nc1cc(-c2cccnc2)c(C(=O)Nc2nccs2)cn1 | Retention_time | 1.36 |
| CCNC(=O)Nc1cc(Oc2ccccc2)c(C(=O)Nc2ccccc2)cn1 | Retention_time | 1.93 |
| CCNC(=O)Nc1ccc(C(=O)Nc2cc(C(=O)OC)ccn2)cn1 | Retention_time | 1.66 |
| CCNC(=O)Nc1ccc(C(=O)Nc2ccnc(C)c2)cn1 | Retention_time | 1.24 |
| CCNC(=O)Nc1ccc(C(=O)Nc2cccc(CC)c2)cn1 | Retention_time | 1.84 |
| CCNC(=O)Nc1cc(Nc2ccccc2)c(C(=O)Nc2ccc(N3CCOCC3)nc2)cn1 | Retention_time | 1.47 |

Inquiry: Query (compound): CCNC(=O)Nc1ccc(C(=O)Nc2ccc(OC)c(OC)c2)cn1 ; field requested: Retention_time
Reply text: 1.59

Inquiry: Query (compound): CCNC(=O)Nc1cc(-c2cccnc2)c(C(=O)Nc2cccc(C)c2)cn1 ; field requested: Retention_time
Reply text: 1.51

Inquiry: Query (compound): CCNC(=O)Nc1ccc(C(=O)Nc2nccs2)cn1 ; field requested: Retention_time
Reply text: 1.52

Inquiry: Query (compound): CCNC(=O)Nc1cc(-n2cccn2)c(C(=O)Nc2cccc(Cl)c2)cn1 ; field requested: Retention_time
Reply text: 1.83

Inquiry: Query (compound): CCNC(=O)Nc1ccc(C(=O)Nc2cccc(F)c2)cn1 ; field requested: Retention_time
Reply text: 1.74

Inquiry: Query (compound): CCNC(=O)Nc1cc(Nc2ccccc2)c(C(=O)Nc2cccc(C)c2)cn1 ; field requested: Retention_time
Reply text: 1.68

Inquiry: Query (compound): CCNC(=O)Nc1cc(Nc2ccccc2)c(C(=O)Nc2ccc(-n3cncn3)nc2)cn1 ; field requested: Retention_time
Reply text: 1.54

Inquiry: Query (compound): CCNC(=O)Nc1cc(-n2ccnc2)c(C(=O)Nc2cccc(Cl)c2)cn1 ; field requested: Retention_time
Reply text: 1.44

Inquiry: Query (compound): CCNC(=O)Nc1cc(NC2CCCCC2)c(C(=O)Nc2cccc(C)c2)cn1 ; field requested: Retention_time
Reply text: 1.7

Inquiry: Query (compound): CCNC(=O)Nc1cc(Nc2ccccc2)c(C(=O)Nc2cccc(Cl)c2)cn1 ; field requested: Retention_time
Reply text: 1.71

Inquiry: Query (compound): CCNC(=O)Nc1ccc(C(=O)Nc2ccc(Cl)cc2)cn1 ; field requested: Retention_time
Reply text: 1.83

Inquiry: Query (compound): CCNC(=O)Nc1ccc(C(=O)Nc2ccccc2Cl)cn1 ; field requested: Retention_time
Reply text: 1.7

Inquiry: Query (compound): CCNC(=O)Nc1ccc(C(=O)Nc2cccc(C#N)c2)cn1 ; field requested: Retention_time
Reply text: 1.69

Inquiry: Query (compound): CCNC(=O)Nc1cc(N2CCN(C)CC2)c(C(=O)Nc2cccc(C)c2)cn1 ; field requested: Retention_time
Reply text: 1.26

----------
# Tgt: DNA gyrase (Escherichia coli, UniProt P0AES4+P0AES6)
# Assay Method Text: Inhibition of Escherichia coli GyrB A2B2 subunits assessed reduction in DNA supercoiling activity by malachite green dye based by spectrophotometry
Labels assigned by IC50 range: bucket A = under 400 nM, bucket B = from 400 nM up to 5000 nM, bucket C = 5000 nM and over

| Smiles String | Cat |
| --- | --- |
| CCNC(=O)Nc1cc(Nc2cccnc2)c(C(=O)Nc2ccccc2)cn1 | bucket B |
| CCNC(=O)Nc1ccc(C(=O)Nc2ccc3c(C)cc(=O)oc3c2)cn1 | bucket C |
| CCNC(=O)Nc1cc(Nc2ccccc2)c(C(=O)NCc2cccnc2)cn1 | bucket B |

Inquiry: // return the class label for CCNC(=O)Nc1cc(Nc2ccccc2)c(C(=O)Nc2ccc(NC(C)=O)nc2)cn1
Reply text: bucket A

Inquiry: // return the class label for CCNC(=O)Nc1cc(N2CCN(C)CC2)c(C(=O)Nc2cccnc2)cn1
Reply text: bucket C

Inquiry: // return the class label for CCNC(=O)Nc1ccc(C(=O)Nc2cccc(C(N)=O)c2)cn1
Reply text: bucket C

Inquiry: // return the class label for CCNC(=O)Nc1ccc(C(=O)Nc2cccc(F)c2)cn1
Reply text: bucket B

----------
# Tgt: DNA gyrase (Escherichia coli, UniProt P0AES4+P0AES6)
# Assay Method Text: Inhibition of Escherichia coli GyrB A2B2 subunits assessed reduction in DNA supercoiling activity by malachite green dye based by spectrophotometry
Measured pIC50 accompanies every entry in the list below.
Note: pIC50 values are expressed as the negative base-10 logarithm of concentration in M.

Before answering, review these 5 worked examples.
| Smiles String | Reported Property | Numeric Result |
| --- | --- | --- |
| CCNC(=O)Nc1ccc(C(=O)Nc2ccc(Cl)cc2)cn1 | pIC50 | 5.48 |
| CCNC(=O)Nc1cc(N2CCN(C)CC2)c(C(=O)Nc2cccc(C)c2)cn1 | pIC50 | 4.74 |
| CCNC(=O)Nc1cc(-c2cccnc2)c(C(=O)Nc2cccnc2)cn1 | pIC50 | 5.95 |
| CCNC(=O)Nc1cc(-c2cccnc2)c(C(=O)Nc2nccs2)cn1 | pIC50 | 6.25 |
| CCNC(=O)Nc1cc(NCc2cccnc2)c(C(=O)Nc2ccccc2)cn1 | pIC50 | 5.32 |

Inquiry: Query (compound): CCNC(=O)Nc1ccc(C(=O)Nc2ccncc2)cn1 ; field requested: pIC50
Reply text: 5.46

Inquiry: Query (compound): CCNC(=O)Nc1cc(N2CCN(C)CC2)c(C(=O)Nc2nccs2)cn1 ; field requested: pIC50
Reply text: 4.48

Inquiry: Query (compound): CCNC(=O)Nc1cc(Nc2cccc(C)c2)c(C(=O)Nc2cccc(C)c2)cn1 ; field requested: pIC50
Reply text: 7.00

Inquiry: Query (compound): CCNC(=O)Nc1ccc(C(=O)Nc2cccc(CC)c2)cn1 ; field requested: pIC50
Reply text: 4.39

Inquiry: Query (compound): CCNC(=O)Nc1ccc(C(=O)Nc2ccnc(C)c2)cn1 ; field requested: pIC50
Reply text: 5.28

Inquiry: Query (compound): CCNC(=O)Nc1cc(NC2CCCCC2)c(C(=O)Nc2cccc(C)c2)cn1 ; field requested: pIC50
Reply text: 5.67

----------
# Test system: Staphylococcus aureus
# Assay Method Text: Antibacterial activity against Staphylococcus aureus ATCC 29213 incubated for 24 hrs by broth microdilution method
# Assay type: functional
# Run Conditions: ATCC 29213, 24 h
Measured MIC accompanies every entry in the list below.
Dear colleague, please return just the value in µg/mL, with no unit written.

| Smiles String | MIC [µg/mL] |
| --- | --- |
| CCNC(=O)Nc1cc(-n2cccn2)c(C(=O)Nc2cccc(Cl)c2)cn1 | 8 |

The record that follows has no MIC shown yet.
Inquiry: Query (compound): CCNC(=O)Nc1cc(Nc2cccc(C)c2)c(C(=O)Nc2cccc(C)c2)cn1 ; field requested: MIC
Reply text: 1

----------
# Assay Method Text: Retention time of the compound by HPLC method
# Format: physicochemical
Measured Retention_time accompanies every entry in the list below.
Dear colleague, please return just the value in min, with no unit written.

| Smiles String | Retention_time (min) |
| --- | --- |
| CCNC(=O)Nc1cc(NCc2cccnc2)c(C(=O)Nc2ccccc2)cn1 | 1.3 |
| CCNC(=O)Nc1cc(Nc2cccc(C)c2)c(C(=O)Nc2nccs2)cn1 | 1.51 |
| CCNC(=O)Nc1cc(Nc2cccc(C)c2)c(C(=O)Nc2cccc(C)c2)cn1 | 1.75 |
| CCNC(=O)Nc1cc(Nc2ccccc2)c(C(=O)Nc2cccnc2)cn1 | 1.36 |
| CCNC(=O)Nc1cc(Nc2ccccc2)c(C(=O)NCc2cccnc2)cn1 | 1.24 |

Inquiry: Query (compound): CCNC(=O)Nc1ccc(C(=O)Nc2ccc3c(C)cc(=O)oc3c2)cn1 ; field requested: Retention_time
Reply text: 1.64

Inquiry: Query (compound): CCNC(=O)Nc1ccc(C(=O)Nc2ccccc2)cn1 ; field requested: Retention_time
Reply text: 1.69

Inquiry: Query (compound): CCNC(=O)Nc1cc(NCc2cccnc2)c(C(=O)Nc2cccnc2)cn1 ; field requested: Retention_time
Reply text: 1.23

Inquiry: Query (compound): CCNC(=O)Nc1cc(Nc2ccccc2)c(C(=O)Nc2ccc(NC(C)=O)nc2)cn1 ; field requested: Retention_time
Reply text: 1.45

Inquiry: Query (compound): CCNC(=O)Nc1cc(-c2cccnc2)c(C(=O)Nc2cccnc2)cn1 ; field requested: Retention_time
Reply text: 1.12
